Numbers sourced from paper PMC11905928.

- Protocol: Solubility
- Format: physicochemical
- Experimental parameters: methanol-water (16:84 v/v), aqueous with cosolvent or surfactant or cyclodextrin
Result type: solubility (µM)
Respond with the bare value in µM.

Annotate the compound `Cc1c2ccncc2c(C)c2c1[nH]c1ccccc12` with its measured solubility.
1200

----------
- System tested: Aβ19–20 (FF) dimerization (Homo sapiens, UniProt P05067)
- Protocol: biochemical
- Experimental parameters: IC50 on the FF-dimerization, Hill equation; FJ, 200 mM KCl
Structures can show the parent of a compound that is named as a salt.
Result type: IC50
# output: numeric value plus its unit

Compound	IC50
COc1cccc2c1C(=O)c1c(O)c3c(c(O)c1C2=O)C[C@@](O)(C(C)=O)C[C@@H]3O[C@H]1C[C@H](N)[C@H](O)[C@H](C)O1 [Daunorubicin hydrochloride, reference compound]	3.5 µM
O=C(/C=C/c1ccc(O)c(O)c1)O[C@H](Cc1ccc(O)c(O)c1)C(=O)O [Rosmarinic acid (RA), rosmarinic acid, reference compound]	13.1 µM
C[C@H](Cc1ccc(O)c(O)c1)[C@@H](C)Cc1ccc(O)c(O)c1 [Nordihydroguaiaretic acid (NDGA), nordihydroguaiaretic acid]	107 µM

Here's the next entry for you.
Return reported IC50. Input compound: `CN(C)[C@@H]1C(O)=C(C(N)=O)C(=O)[C@@]2(O)C(O)=C3C(=O)c4c(O)cccc4[C@@](C)(O)[C@H]3C[C@@H]12`
77.6 µM

----------
- System tested: Aβ19–20 (FF) dimerization (Homo sapiens, UniProt P05067)
- Protocol: biochemical
- Experimental parameters: read-out: IC50 on the FF-dimerization; Hill equation; FJ, 200 mM KCl
Result type: pIC50
The meaning of pIC50 here: minus log10 of the concentration in molar units.

Give the measured pIC50 for O=C(O[C@@H]1Cc2c(O)cc(O)cc2O[C@@H]1c1cc(O)c(O)c(O)c1)c1cc(O)c(O)c(O)c1 [Epigallocatechin gallate (EGCG), epigallocatechin gallate]
4.58
